method description: soluble on expression in E. coli; label from the status in PepcDB or PDB records
outcome measure: soluble on expression in E. coli

MASQPTNAVSAEQLMLSKMQAMQAQVQPPEFIVSANPLDQQALNAPLSFSQAMTNVLDTVNQHQSAASQKMTAVETGQSDDLVGAMVASQKASLSFNALMQVRNKVVASFEDIMKMPV: not soluble
AIAQNDAGEFVDLYVPRKCSASNRIIGAKDHASIQMNVAEVSWEPGRREGCDICAGKAGCPIVEEPLG: soluble
MGSDKIHHHHHHMSSEAIFEHGYENIDLVREYDARYAGEDVHYETFARLANFFGRDMRPHWHDRYFQLHYLVTGRITLQLDEHFYSVRAPLFVLTPPSVPHTFFTNPDSDGHVLTVRQELIWPLVEKLWPGSGDAAMLQGICLSLEGMEHTLAALNHYWPIISLEFQQNKQGREILLQSLAQSIFTILLREAPPNDISTCSVRGEMCLFQKFNRLIDENYRQHLMVPEYATMLGMSESRLTELCRRFANQSPKRLIFERVSREARRLLLYSEQSINQIALDLGYKDPAYFARFFNRMMGCSPTQFRGR: not soluble
MNIGVIGTGNMGTILIEAFLDSGAVKADQLVITNRTLAKAFAIQRAHPGIAVVADAAEVIKQSSLVFLCVKPLDIHPLLQQLAPHWTREHCLVSITSPISVEQLEAAVPCQIVRAIPSIANRALSGSILVTFGSRCSTTCRQTIDDLLRRIASPVYIDEAITRVASDISSCGPAFFSYLLQRFIDAAAAKTAITKEQATMLATDMIIGLGELLKRNLYTLPTLQEKVCVKGGITGEGIAVLEQRMNGVFEEVLAKTHEKFKEDVEKVKQQFS: not soluble
MAHHHHHHMVAPSGRTGRRTTRRRTLHTGAGTTVTQRSARLPSRLRRVSTLKTSRAPSCLSTSARLRLFRRRRTCWRCWSERASPYQSSATTPSSPPETAVCAWCRTALRTSSSRAPPWRYLACPSSPTAACAMPARAMWSLSSTTRTTARFASRPPTAICRTATTAPTSRATARTRKPSRTSTLTPRHASCTAASTARAASASTSTRRTSTSARLAAAGARFPPFMNWRRRTTICPFLSYAPSGSCTWAMQTRTTTCASSRLRGQRR: soluble
MGSDKIHHHHHHMLEQKINVDNTALFEQLWGWTNELREKIDARFELHSDPSTENFKKYSALIGEAHGSVNTFSGPEIDWLVHSWLREPKSGFCNMHLTVWLKSQIHVPHLAIVFATVPELFFFIDYVSRTDLFTDLDYLDRYYEPVNQTYLAFLKDSRFQQYISKTLYIRQVQSHTSLCYTSPVTEETLARIHTLAHEMIDRWLGWVDEAEPVAESERDALSERDLFVRRTVAERDPDNQIAVRLFGAEMTDKLVRSLWGGDRIL: not soluble

Then there is this sequence:
// query soluble on expression in E. coli value for entry MNFSIRVILLLTGFVSLAFSAPKFLTISDIHYGAENIAKDGQDTGKEFLDVTFKRFEELSQNVDFILHLGDLPTHSLFSIPKKEEYEQVVFHGLHEANPGQKPMFYITGNNDSLLGNYQPFSSDNKSPLNLALDWDGACAYCDGLIIDDTHMRKDGYYSSYVIPNNKEIILIALNSVQWTKTPVFLPKYPNQQRDAFVQLFWLEQQLKNHRAKQLLLAMHVPPGTAYNGNRFWHDIYLDRFLTLLDKYHQSYDQITILFSHSHMEEFRKIRLSDGSTIYAFSTPGISRAHHNNPGMKIFDLDKQMRVRNSTTYYTSDLYEWGNEYYQAMNTPDAIFPNCQNKTIPQCLDTLSPEQVCNNLEVGLFYGVKSTRVPYQGCIKTYQINLEHHHHHH
not soluble

###

method description: soluble on expression in E. coli; label from the status in PepcDB or PDB records
outcome measure: soluble on expression in E. coli

As a guide, the following entries are already answered.
MTALISISLLLVTFAGAAEMCAPVTQHSTPQSDVPSTVTITFHKLETSTTTKDEILNAIRTSHPDVHATGEPIDKKSIKVTLTAVSCVTAMKLAEEVLNAGTPVVLNAYAMLCDGEISTNIKP: soluble
MGSDKIHHHHHHMVDSLQKPELEELRPGIKAPAKETILTPRFYTTDFEAMAKMDLSPNEDELRAILEEFRADYNRKHFVRTPEFDGSAADMDPETKKVFVEFLEQSCTSEFSGFLLYKELSRRIKNRNPLLAECFELMARDEARHAGFLNKSMSDFDLQLDLGFLTANKKYTYFKPAYIFYATYLSEKIGYWRYITIFRHLEQHPEYRIYPIFKFFENWCQDENRHGDFFDALMKAQPSTVRGFVAKLWCRFFLLAVFATMYIRDVQRKEFYEALGLDAREYDRHVIAKTNETSARVFPVVLDVDHPKFYDRLETCIANNNQLAAIEATSAPKPVKVLRKLPYYLSNGLQLLKLYLVKPLESDVYQPAVR: not soluble
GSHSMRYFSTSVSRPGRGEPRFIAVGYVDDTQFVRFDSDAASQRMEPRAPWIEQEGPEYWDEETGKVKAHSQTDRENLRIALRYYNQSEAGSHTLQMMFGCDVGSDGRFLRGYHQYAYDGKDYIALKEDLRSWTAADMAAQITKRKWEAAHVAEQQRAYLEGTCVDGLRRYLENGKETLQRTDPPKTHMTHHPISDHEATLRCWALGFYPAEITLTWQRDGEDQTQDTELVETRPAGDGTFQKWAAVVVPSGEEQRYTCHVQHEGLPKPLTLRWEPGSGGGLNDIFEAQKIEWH: soluble
MPDEATKGSATIPPSSSTPFWWREKRSPKVQYHRSAYPRSRSSDADCRQGNEGMNFIAKHFFEYQSFMNIPHKAVHLHKVPASQAGTDPSMGWAPKNMLKAGKHQPAPGARANRVHRDPRPNGTKYGRAGKHEHREWGDRHGELRDEKVACHKDAWTKFLANDDQGARTAFECDFEDRVLATEEETLQEKLCRTSPEAMNLNALYAAANKAVSCGGDVCELLTILTYAPTVQFVTTTVKKAKALPYNNAPFARIMLFEGRRLMEQKQTTVNPSLVHKSSVDGSKPSSSSASTSSNDNPSDVSFSESFLFHVPPTKLDRSHIVIELYDHDDEGGLQKIGHCVIGRLVDGTGNAHWIQMVRQHGLPVCMWHKIGHN: not soluble
MSYPMTPVKRPTISHGIQASDGIIKRPIEGNKKRLSAPIKDKPEHRIAPEEITNAPTTSRLRRAPEFDVVVIMKTTKKDRKKIIQTPRRRSIKLANVPMTPKTAPIRRHSTGGNAAMSTPKRRKSFGSLAPVRQHRVETRKVVRNLMAVRPPLCF: soluble

// next item, soluble on expression in E. coli requested
Given the sequence MGSDKIHHHHHHMSIFISGSLAYDRIMNFPGKFSDHILPDKIHILNVCFLIDRLEEKRGGTAGNIAYSLALLGEKPTILATVGKDFDRYEEVLTGLGLPQDGIRKMDDQFTAGAYITTDQSDNQITGFNPAAMSHPCGYQFNGVTPENDLAIVSPGNLQDMVELPRKFRSMGMRYIFDPGQQITALTGDSMLECINGAHMLVSNDYELEMIMKATGRTKAELLTMTDYIITTLGENGSRIDNGEPVMVGIARPRQVLDPTGAGDAFRAGLLKGLTDGLDVAGAAKIGATCASFCVEHYGTQEHTFTPEEFKARHQAAFGA , what is its reported soluble on expression in E. coli?
not soluble

###

method description: soluble on expression in E. coli; label from the status in PepcDB or PDB records
outcome measure: soluble on expression in E. coli

Take a look at these entries with their results.
MGSDKIHHHHHHMWFRNLLVYRLTQDLQLDADSLEKALGEKSARPCASQELTTYGFTAPFGKGPDAPLVHVSQDFFLISARKEERILPGSVVRDALKEKVDEIEAQQMRKVYKKERDQLKDEIVQTLLPRAFIRRSSTFAAIAPSLGLILVDSASAKKAEDLLSTLREALGSLPVRPLSVKVAPTATLTDWVKTQEAAGDFHVLDECELRDTHEDGGVVRCKRQDLTSEEIQLHLTAGKLVTQLSLAWSDKLSFVLDDKLAVKRLRFEDLLQEQAEKDGGEDALGQLDASFTLMMLTFAEFLPALFEALGGEEIPQGV: not soluble
MGSDKIHHHHHHMKKLRIAQVSPLIESVPPKKYGGTERVVYYLTEGLVERGHEVTLFASGDSATSARLIAPVKESLRLGRKIHSTTIMHMLMLSKVYEEMAGEFDIIHSHLEYLTLPYASCSRTPTVLTMHGRLDLPDYADILKRYSSMAWVSISDSQRAPVPDINWVGTIYHGYPENLFEFNPDPEDYFLYLGRFSEEKRPDEAIRLARACKIHLKLAAKIDTADKAYFKAKVEPLLDSPYIEYVGEVGDSRKGELLRNAKALLNTIDWPEPFGLVMIEALACGTPVIVRRCGSSPEVITHGVTGFICDSQLDFIRAIHNIGTISRIACRREFEQRFTLRHMVDNYETLYRKVIAASSATDSLSSLP: not soluble
MPARRSAARIDFAGSPRPTLGVEWEFALVDSQTRDLSNEATAVIAEIGENPRVHKELLRNTVEIVSGICECTAEAMQDLRDTLGPARQIVRDRGMELFCAGTHPFARWSAQKLTDAPRYAELIKRTQWWGRQMLIWGVHVHVGIRSAHKVMPIMTSLLNYYPHLLALSASSPWWGGEDTGYASNRAMMFQQLPTAGLPFHFQRWAEFEGFVYDQKKTGIIDHMDEIRWDIRPSPHLGTLEVRICDGVSNLRELGALVALTHCLIVDLDRRLDAGETLPTMPPWHVQENKWRAARYGLDAVIILDADSNERLVTDDLADVLTRLEPVAKSLNCADELAAVSDIYRDGASYQRQLRVAQQHDGDLRAVVDALVAELVI: soluble
MSKTRMEKLKTLKTIAETLNQGHDIKATLDEVLKELLSLTNLQSGWIFLIEEDGSYTLAADAYLPPALSRKEKVLMCEGECYCLTKFNNGGLRKAANIMNCKRIESAENLHCFDTEGITHHATVPLEDGDRRFGLLNVAAAGKTMFDEEELHLLESVAFQIGTAIQRMRLSE: soluble

Data request, read-out soluble on expression in E. coli, for MICARIRPLISSPLAFTISTTKHSRINLRLLPRRSFSVMSSSTPQSQIIEHIVLFKTKDDADSTKITSMINNLNALAYLDQVLHISTSPLHRISSATAFTHVLHSRYESKEDLASYAAHPDHVRVVKESVLPICDDIMAVDWIADRIPGTVAPLPGSVAKLTLLKLKEDVADEAKSEITGVIKGLSEKFPGIDQITVGENFSPARAKGFSIASIAYFKDLSEMEAVDAQKELVNSQKDKVRDYVDSTIVVEFVVPSSSQSSSL
soluble

Measured values drawn from the DeepSol protein solubility set for this set.
